Test system: COLO 205
Test: NCI tumour cell line growth inhibition, 48 h
Active and inactive are the calls of the source. Rule as the data show it: active = GI50 up to about 1.1 µM and inactive = higher.
Possible outcomes: active, inactive

[
  {
    "compound": "O=C1c2ccccc2C(=O)N1CCCSc1ccccc1",
    "targetOrTestSystem": "COLO 205",
    "labelClass": "inactive"
  },
  {
    "compound": "CNC(C)(C)Cc1ccc(Cl)cc1",
    "targetOrTestSystem": "COLO 205",
    "labelClass": "inactive"
  },
  {
    "compound": "COc1ccc(S(=O)(=O)n2c3c(c4ccccc42)[C@@H]2[C@@H](CCCN2C(=O)C[S+]([O-])c2ccc(C)cc2)[C@H](Cl)C3)cc1 (stereo partly specified)",
    "targetOrTestSystem": "COLO 205",
    "labelClass": "inactive"
  },
  {
    "compound": "CCOC(=O)c1c(C)n(Cc2ccccc2)c(=O)c2ccccc2c(=O)c2c(=O)ccc(=O)c1=2",
    "targetOrTestSystem": "COLO 205",
    "labelClass": "inactive"
  },
  {
    "compound": "CC1ON2CCCC2[C@H]1C(=O)N1C2CC3CCC2(CS1(=O)=O)C3(C)C (stereo partly specified)",
    "targetOrTestSystem": "COLO 205",
    "labelClass": "inactive"
  },
  {
    "compound": "COc1cc(C(C)c2cc3c(cc2OCCNC(=O)COc2cc4c(cc2C(C)c2cc(OC)c(OC)c(OC)c2)OCO4)OCO3)cc(OC)c1OC (stereo unspecified)",
    "targetOrTestSystem": "COLO 205",
    "labelClass": "inactive"
  },
  {
    "compound": "C[C@H](N)C(=O)N[C@@H]1[C@H]2C(=C(O)C[C@@H](O)[C@@H]2O)C(=O)O[C@]1(C)C(Cl)Cl [BACTOBOLIN]",
    "targetOrTestSystem": "COLO 205",
    "labelClass": "active"
  },
  {
    "compound": "CC1(C)CC(=O)C2=C(C1)NC(=S)C(C#N)C2c1ccccc1 (stereo unspecified)",
    "targetOrTestSystem": "COLO 205",
    "labelClass": "inactive"
  },
  {
    "compound": "CC(C)(C)OC[C@H](O)CC#N",
    "targetOrTestSystem": "COLO 205",
    "labelClass": "inactive"
  },
  {
    "compound": "S=C=NCc1ccccc1 [BENZYL ISOTHIOCYANATE]",
    "targetOrTestSystem": "COLO 205",
    "labelClass": "inactive"
  },
  {
    "compound": "O=c1c2ccccc2oc2nc3n(c(=O)c12)CCCS3",
    "targetOrTestSystem": "COLO 205",
    "labelClass": "inactive"
  },
  {
    "compound": "Cc1cc(S(=O)(=O)O)ccc1/N=N/c1ccc(/N=N/c2c(O)ccc3ccccc23)c(C)c1",
    "targetOrTestSystem": "COLO 205",
    "labelClass": "inactive"
  },
  {
    "compound": "CCOC(=O)Nc1cc(NC(/C=N/NC(C)=O)C(=O)OCC)c(OC)cc1NC(C)=O (stereo unspecified)",
    "targetOrTestSystem": "COLO 205",
    "labelClass": "inactive"
  },
  {
    "compound": "Cc1cc(Nc2ccc(/N=N/c3ccc(O)c4ncccc34)cc2)nc(C)n1",
    "targetOrTestSystem": "COLO 205",
    "labelClass": "inactive"
  },
  {
    "compound": "O=C1C[C@H]2[C@@H](O1)[C@@H](O)CN1C(=O)c3ccccc3[C@H]21",
    "targetOrTestSystem": "COLO 205",
    "labelClass": "inactive"
  },
  {
    "compound": "N#C/C(=C1\\SC(C(N)=O)=C(N)N1c1ccccc1)c1nc2ccccc2[nH]1",
    "targetOrTestSystem": "COLO 205",
    "labelClass": "inactive"
  },
  {
    "compound": "NC(=O)C(=O)C1C(=O)N(c2ccccc2)N=C1N (stereo unspecified)",
    "targetOrTestSystem": "COLO 205",
    "labelClass": "inactive"
  },
  {
    "compound": "O=C(/C=C\\c1cccc2ccccc12)c1ccc(Cl)cc1Cl",
    "targetOrTestSystem": "COLO 205",
    "labelClass": "inactive"
  },
  {
    "compound": "Cc1cccc(N/C(=C(/C(Cl)=C(Cl)Cl)[N+](=O)[O-])n2nnc3ccccc32)c1",
    "targetOrTestSystem": "COLO 205",
    "labelClass": "inactive"
  },
  {
    "compound": "Clc1ccccc1C(c1ccccc1)(c1ccccc1)n1ccnc1 [CLOTRIMAZOLE]",
    "targetOrTestSystem": "COLO 205",
    "labelClass": "inactive"
  },
  {
    "compound": "COC(=O)CC1C(C)(C)C(=O)C2CC3=C4CC(=O)OC(c5ccoc5)C4(C)CCC3C1(C)C2=O (stereo unspecified)",
    "targetOrTestSystem": "COLO 205",
    "labelClass": "inactive"
  },
  {
    "compound": "COc1ccc2nc3ccc(OC)cc3c(S(=O)(=O)Cc3ccc([N+](=O)[O-])cc3)c2c1",
    "targetOrTestSystem": "COLO 205",
    "labelClass": "inactive"
  },
  {
    "compound": "Cc1ccc2nc(Cl)c(/C=N/N3C(=O)/C(=C/c4ccc(N(C)C)cc4)N=C3c3ccccc3)cc2c1",
    "targetOrTestSystem": "COLO 205",
    "labelClass": "inactive"
  },
  {
    "compound": "Cc1cc(N(CCC#N)S(=O)(=O)c2ccccc2)ccc1C=O",
    "targetOrTestSystem": "COLO 205",
    "labelClass": "inactive"
  },
  {
    "compound": "CC(C)(C)NCC(COc1ccc([N+](=O)[O-])cc1)OP(c1ccccc1)c1ccccc1 (stereo unspecified)",
    "targetOrTestSystem": "COLO 205",
    "labelClass": "inactive"
  },
  {
    "compound": "CC(C)(C)OC(=O)N1Cc2cc(O)ccc2C[C@H]1C(=O)O",
    "targetOrTestSystem": "COLO 205",
    "labelClass": "inactive"
  },
  {
    "compound": "COC(=O)C1=Nc2c(C)nn(-c3ccccc3)c2N=C(c2ccc([N+](=O)[O-])cc2)C1",
    "targetOrTestSystem": "COLO 205",
    "labelClass": "inactive"
  },
  {
    "compound": "O=C1NC(N/N=C/c2ccccc2)=N/C1=C\\c1ccco1",
    "targetOrTestSystem": "COLO 205",
    "labelClass": "inactive"
  },
  {
    "compound": "Cc1ccc(Nc2nc(C)c(C(/C=C/c3ccc4c(c3)OCO4)=N/Nc3ccc([N+](=O)[O-])cc3[N+](=O)[O-])s2)c([N+](=O)[O-])c1",
    "targetOrTestSystem": "COLO 205",
    "labelClass": "inactive"
  },
  {
    "compound": "O=C(Nc1ccccc1)c1ccc(Cl)c([N+](=O)[O-])c1",
    "targetOrTestSystem": "COLO 205",
    "labelClass": "inactive"
  },
  {
    "compound": "Cc1cc(S(=O)(=O)n2ccnc2O)c(SCCCN(C)C)cc1Cl",
    "targetOrTestSystem": "COLO 205",
    "labelClass": "inactive"
  },
  {
    "compound": "CCOC(=O)n1c2ccccc2c(=O)n1CCO",
    "targetOrTestSystem": "COLO 205",
    "labelClass": "inactive"
  },
  {
    "compound": "NC(=O)c1ccc(NCC2=CC(=O)C=CC2=O)cc1",
    "targetOrTestSystem": "COLO 205",
    "labelClass": "inactive"
  },
  {
    "compound": "Cc1cc(C)c(-n2c(C)c(C)c(C#N)c2N)c(C)c1",
    "targetOrTestSystem": "COLO 205",
    "labelClass": "inactive"
  },
  {
    "compound": "Cc1c(/N=N/c2ccc(Cl)cc2)c(-c2ccccc2)n(C2OC(CO)C(O)C(O)C2O)c(=S)c1C#N (stereo unspecified)",
    "targetOrTestSystem": "COLO 205",
    "labelClass": "inactive"
  },
  {
    "compound": "O=C(/C=C/c1ccc(Br)cc1)c1ccc(NCc2nc3ccccc3[nH]2)cc1",
    "targetOrTestSystem": "COLO 205",
    "labelClass": "inactive"
  },
  {
    "compound": "COc1ccc(C2Cc3cc(OC)c(OC)c(OC)c3C2)cc1 (stereo unspecified)",
    "targetOrTestSystem": "COLO 205",
    "labelClass": "inactive"
  },
  {
    "compound": "C#CCCCC(=O)N(C(=O)C[S+]([O-])CC)c1ccccc1 (stereo unspecified)",
    "targetOrTestSystem": "COLO 205",
    "labelClass": "inactive"
  },
  {
    "compound": "COc1ccc(-c2cc(=O)c3c(OC)c(OC)c(OC)c(OC)c3o2)cc1 [TANGERETIN]",
    "targetOrTestSystem": "COLO 205",
    "labelClass": "inactive"
  },
  {
    "compound": "[O-][S+]1Nc2cccc(C(F)(F)F)c2S1 (stereo unspecified)",
    "targetOrTestSystem": "COLO 205",
    "labelClass": "inactive"
  },
  {
    "compound": "Cc1nc(O)c(Cc2ccccc2O)c(-c2ccccc2)n1",
    "targetOrTestSystem": "COLO 205",
    "labelClass": "inactive"
  }
]
